system: CD2F1 mice, L1210 leukemia ip, survival T/C; assay: NCI In Vivo Anticancer Drug Screen. Data for tumor model L1210 Leukemia (intraperitoneal) in CD2F1 (CDF1) mice; conditions: endpoint: mean survival time; dose: 12.5 mg/kg/injection; schedule: Q01DX009 (ip); vehicle: saline
Inconclusive results and toxic doses are left out. How the source made its calls: active means survival T/C of 150% or more; inactive means T/C below 125% in these data.
Outcomes: 1 (active), -1 (inactive)

{"COMPOUND": "CC[n+]1ccc(Nc2ccc(NC(=O)c3ccc(C(=O)Nc4ccc(Nc5cc[n+](CC)c(N)n5)cc4)cc3)cc2)nc1N", "LABEL": 1}
{"COMPOUND": "COC(=O)c1ccccc1Cn1c(C)cnc1C", "LABEL": -1}
{"COMPOUND": "CC1OC(n2cc(C(N)=O)c3c(N)ncnc32)C(O)C1O (stereo not drawn)", "LABEL": -1}
{"COMPOUND": "NNC(=O)CCC(=O)NN", "LABEL": -1}
{"COMPOUND": "COc1ccc2[nH]c3c(C)c4cc[n+](C)cc4c(C)c3c2c1", "LABEL": -1}
{"COMPOUND": "COc1ccc2c(c1)N(CC(C)C[N+](C)(C)CCCCCCCCCC[N+](C)(C)CC(C)CN1c3ccccc3Sc3ccc(OC)cc31)c1ccccc1S2 (stereo not drawn)", "LABEL": -1}
{"COMPOUND": "CN1NC(=O)C2CCCC1O2 (stereo not drawn)", "LABEL": -1}
{"COMPOUND": "Cc1c(N)nc(C(CC(N)=O)NCC(N)C(N)=O)nc1C(=O)NC(C(=O)NC(C)C(O)C(C)C(=O)NC(C(=O)NCCc1nc(-c2nc(C(=O)NCCCNCCCc3ccccn3)cs2)cs1)C(C)O)C(OC1OC(CO)C(O)C(O)C1OC1OC(CO)C(O)C(OC(N)=O)C1O)c1cnc[nH]1 (stereo not drawn)", "LABEL": -1}

----------
system: CD2F1 mice, L1210 leukemia ip, survival T/C; test: NCI In Vivo Anticancer Drug Screen. Data for tumor model L1210 Leukemia (intraperitoneal) in CD2F1 (CDF1) mice; conditions: endpoint: mean survival time; dose: 100.0 mg/kg/injection; schedule: Q04DX003 (ip); vehicle: saline with Tween-80; higher = longer survival
Inconclusive results and toxic doses are left out.
MEASURE NAME: T/C

{"COMPOUND": "CC(=O)Nc1ccc(SC(=O)N(C)C)cc1", "MEASURE NAME": "T/C", "RECORDED RESULT": "92 % of control"}
{"COMPOUND": "O=C(N/N=C/c1ccc2c(c1)CCC2)c1ccc([N+](=O)[O-])cc1", "MEASURE NAME": "T/C", "RECORDED RESULT": "95 % of control"}
{"COMPOUND": "C/C(=N\\O)C(C)(O)C(C)(C)C (configuration not stated)", "MEASURE NAME": "T/C", "RECORDED RESULT": "90 % of control"}
{"COMPOUND": "O=C1C(Cl)=C(NCc2ccc(Cl)cc2)C(=O)c2ccccc21", "MEASURE NAME": "T/C", "RECORDED RESULT": "91 % of control"}
{"COMPOUND": "O=c1[nH]cccc1[N+](=O)[O-]", "MEASURE NAME": "T/C", "RECORDED RESULT": "106 % of control"}
{"COMPOUND": "Cc1ncc([N+](=O)[O-])cc1C(=O)O", "MEASURE NAME": "T/C", "RECORDED RESULT": "94 % of control"}
{"COMPOUND": "O=S=Nc1ccc(S(=O)(=O)c2ccc(N=S=O)cc2)cc1", "MEASURE NAME": "T/C", "RECORDED RESULT": "95 % of control"}
{"COMPOUND": "BrC1CCCCCC12OCCO2 (configuration not stated)", "MEASURE NAME": "T/C", "RECORDED RESULT": "86 % of control"}
{"COMPOUND": "Nc1[nH]c(=O)[nH]c(=O)c1N", "MEASURE NAME": "T/C", "RECORDED RESULT": "108 % of control"}
{"COMPOUND": "C(=N\\N=C\\c1ccco1)/c1ccco1", "MEASURE NAME": "T/C", "RECORDED RESULT": "97 % of control"}
{"COMPOUND": "Cc1ccc(S(=O)(=O)OCC(OS(=O)(=O)c2ccc(C)cc2)C2OC3OC(C)(C)OC3C2OS(=O)(=O)c2ccc(C)cc2)cc1 (configuration not stated)", "MEASURE NAME": "T/C", "RECORDED RESULT": "96 % of control"}
{"COMPOUND": "O=C(Nc1ccc2c(c1)Cc1cc(Br)ccc1-2)C(F)(F)F", "MEASURE NAME": "T/C", "RECORDED RESULT": "101 % of control"}

----------
system: CD2F1 mice, L1210 leukemia ip, survival T/C; assay: NCI In Vivo Anticancer Drug Screen. Data for tumor model L1210 Leukemia (intraperitoneal) in CD2F1 (CDF1) mice; conditions: endpoint: mean survival time; dose: 100.0 mg/kg/injection; schedule: Q04DX003 (ip); vehicle: other
Inconclusive results and toxic doses are left out. Rule for the calls: active = survival T/C of 150% or more; inactive = T/C below 125% in these data.
Labels: t = active, f = inactive

{"COMPOUND": "CCOC(=O)C1OC1(C)c1ccc(Cl)cc1 (centres undefined)", "TEST TARGET": "CD2F1 mice, L1210 leukemia ip, survival T/C", "LABEL": "f"}
{"COMPOUND": "CCCCCCCCCCCCNC(=O)OCCN(CCOC(=O)NCCCCCCCCCCCC)C(=O)COc1ccc(Cl)cc1", "TEST TARGET": "CD2F1 mice, L1210 leukemia ip, survival T/C", "LABEL": "f"}
{"COMPOUND": "CC(C)OC(CCC#N)c1ccc(Cl)cc1 (centres undefined)", "TEST TARGET": "CD2F1 mice, L1210 leukemia ip, survival T/C", "LABEL": "f"}
{"COMPOUND": "C[Si](C)(C)Oc1ccc(O[Si](C)(C)C)cc1", "TEST TARGET": "CD2F1 mice, L1210 leukemia ip, survival T/C", "LABEL": "f"}
{"COMPOUND": "CCCCOc1ccc(OCCCC)cc1", "TEST TARGET": "CD2F1 mice, L1210 leukemia ip, survival T/C", "LABEL": "f"}
{"COMPOUND": "O=C(O)/C=N/NS(=O)(=O)c1ccc2ccccc2c1", "TEST TARGET": "CD2F1 mice, L1210 leukemia ip, survival T/C", "LABEL": "f"}
{"COMPOUND": "CCCCCCCC(O)CCCCCCC", "TEST TARGET": "CD2F1 mice, L1210 leukemia ip, survival T/C", "LABEL": "f"}
{"COMPOUND": "Cc1ccc2c(c1)CCCN2C(=O)c1ccccc1", "TEST TARGET": "CD2F1 mice, L1210 leukemia ip, survival T/C", "LABEL": "f"}
{"COMPOUND": "BrCC12CCC1(CBr)COC2 (centres undefined)", "TEST TARGET": "CD2F1 mice, L1210 leukemia ip, survival T/C", "LABEL": "f"}
{"COMPOUND": "CC(=O)Nc1ccc(-c2c(N)ncc3ccccc23)cc1", "TEST TARGET": "CD2F1 mice, L1210 leukemia ip, survival T/C", "LABEL": "f"}
{"COMPOUND": "O=C(O)C1CCCCC1C(=O)O.[NH-]C1CCCCC1[NH-].[Pt+2] (centres undefined)", "TEST TARGET": "CD2F1 mice, L1210 leukemia ip, survival T/C", "LABEL": "t"}
{"COMPOUND": "Cc1ccc(S(=O)(=O)N/N=C/c2ccc(O)c(O)c2)cc1", "TEST TARGET": "CD2F1 mice, L1210 leukemia ip, survival T/C", "LABEL": "f"}
{"COMPOUND": "CC(C)(C)c1cc(O)c(O)c(C(C)(C)C)c1", "TEST TARGET": "CD2F1 mice, L1210 leukemia ip, survival T/C", "LABEL": "f"}
{"COMPOUND": "O=S(=O)(c1ccccc1)C(Cl)Cl", "TEST TARGET": "CD2F1 mice, L1210 leukemia ip, survival T/C", "LABEL": "f"}

----------
test system: CD2F1 mice, L1210 leukemia ip, survival T/C; experiment: NCI In Vivo Anticancer Drug Screen. Data for tumor model L1210 Leukemia (intraperitoneal) in CD2F1 (CDF1) mice; details: endpoint: mean survival time; dose: 50.0 mg/kg/injection; schedule: Q01DX001 (ip); vehicle: saline; higher = longer survival
Toxic doses and inconclusive results are not listed.

{"MOLECULE": "CC1(C2CC(=O)OC2=O)OCCO1 (centres undefined)", "TEST TARGET": "CD2F1 mice, L1210 leukemia ip, survival T/C", "T/C": "96 % of control"}
{"MOLECULE": "CCCCSC(=N)N", "TEST TARGET": "CD2F1 mice, L1210 leukemia ip, survival T/C", "T/C": "105 % of control"}
{"MOLECULE": "CN(N)c1nc(N)c(C#N)c(C#N)c1C#N", "TEST TARGET": "CD2F1 mice, L1210 leukemia ip, survival T/C", "T/C": "97 % of control"}
{"MOLECULE": "CC(CN1CC(=O)NC(=O)C1)N1CC(=O)NC(=O)C1 (centres undefined)", "TEST TARGET": "CD2F1 mice, L1210 leukemia ip, survival T/C", "T/C": "96 % of control"}
